Molecular target: Mitogen-activated protein kinase 14 (Homo sapiens)
Sequence (Q16539 whole entry): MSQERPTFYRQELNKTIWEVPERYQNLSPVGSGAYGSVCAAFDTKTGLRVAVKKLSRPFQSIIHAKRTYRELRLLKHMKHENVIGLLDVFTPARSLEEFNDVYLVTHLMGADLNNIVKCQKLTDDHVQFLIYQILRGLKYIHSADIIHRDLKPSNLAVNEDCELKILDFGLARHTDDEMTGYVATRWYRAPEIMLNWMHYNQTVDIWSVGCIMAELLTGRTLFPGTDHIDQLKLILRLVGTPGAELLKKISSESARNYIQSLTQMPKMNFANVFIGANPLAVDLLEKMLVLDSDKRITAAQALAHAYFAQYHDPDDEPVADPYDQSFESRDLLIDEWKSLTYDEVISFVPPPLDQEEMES
Assay: Inhibitory concentration against Mitogen-activated protein kinase p38 alpha
quantityName: IC50 (nM)
Record the value in nM, omitting the unit from your answer.

### Prompt IC50 for Clc1ccccc1Nc1ccc2c(-c3ccccc3)n[nH]c2c1 ?
### Response 18

### Prompt Same thing, different molecule: O=C(NC1CCNCC1)c1cccc(-c2n[nH]c3cc(Nc4ccccc4Cl)ccc23)c1
### Response 4.4

### Prompt Same thing, different molecule: O=C(NCCCN1CCOCC1)c1cccc(-c2n[nH]c3cc(Nc4ccccc4Cl)ccc23)c1
### Response 3.7

### Prompt Same thing, different molecule: CN(C)CCNC(=O)c1cccc(-c2n[nH]c3cc(Nc4ccccc4Cl)ccc23)c1
### Response 16

### Prompt Same thing, different molecule: O=C(O)c1ccc(-c2n[nH]c3cc(Nc4ccccc4Cl)ccc23)cc1
### Response 13

Recorded values, source ChEMBL document CHEMBL1143651.
